The measured values listed here are drawn from ChEMBL document CHEMBL5154740.

ASSAYED TARGET: Eukaryotic elongation factor 2 kinase (Homo sapiens) (UniProt O00418)
Sequence (O00418 whole entry): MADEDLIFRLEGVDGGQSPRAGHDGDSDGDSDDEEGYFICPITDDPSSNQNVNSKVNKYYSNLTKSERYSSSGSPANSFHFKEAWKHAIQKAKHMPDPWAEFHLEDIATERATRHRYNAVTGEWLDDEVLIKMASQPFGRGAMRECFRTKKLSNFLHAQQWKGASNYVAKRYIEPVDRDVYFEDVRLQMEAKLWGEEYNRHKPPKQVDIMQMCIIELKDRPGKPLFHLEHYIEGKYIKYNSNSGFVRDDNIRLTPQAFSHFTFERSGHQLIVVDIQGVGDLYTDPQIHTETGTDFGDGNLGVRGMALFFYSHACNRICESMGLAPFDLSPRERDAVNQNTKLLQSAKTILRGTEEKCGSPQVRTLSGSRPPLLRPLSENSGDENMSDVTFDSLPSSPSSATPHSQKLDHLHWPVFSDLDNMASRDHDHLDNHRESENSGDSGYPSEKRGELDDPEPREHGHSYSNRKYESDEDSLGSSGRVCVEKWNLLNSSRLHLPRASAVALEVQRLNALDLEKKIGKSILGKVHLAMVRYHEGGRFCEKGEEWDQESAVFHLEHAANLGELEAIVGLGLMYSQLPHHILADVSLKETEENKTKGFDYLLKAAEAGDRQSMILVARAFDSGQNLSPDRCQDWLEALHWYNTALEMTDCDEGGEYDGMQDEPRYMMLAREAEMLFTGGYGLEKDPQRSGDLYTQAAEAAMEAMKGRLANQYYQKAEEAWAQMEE
PROCEDURE TEXT: Inhibition of EEF2K (unknown origin) at 50 nM by Z'LYTE screening method relative to control
PROPERTY NAME: inhibition (%)
Give your result in % as a bare value.

COMPOUND: O=c1c2ccccc2[se]n1-c1nc(NC2CCCCC2)c2nc[nH]c2n1
inhibition [%]: 1
//
COMPOUND: CCN(CC)CCCC(C)Nc1nc(N2Cc3ccccc3C2=O)nc2[nH]cnc12 (configuration not stated)
inhibition [%]: 1
//
COMPOUND: O=C1c2ccccc2CN1c1nc(NC2CCCC2)c2nc[nH]c2n1
inhibition [%]: 2

Q: Fill in the blank: the reported inhibition of O=C1c2ccccc2CN1c1nc(NC2CCCCC2)c2nc[nH]c2n1 is ____.
Ans: 1

Q: I'd like to know its inhibition. The compound in question is CCCNc1nc(-n2[se]c3ccccc3c2=O)nc2[nH]cnc12
Ans: 0

Q: Consider the compound shown here: O=c1c2ccccc2[se]n1-c1nc(Nc2ccccc2)c2nc[nH]c2n1 What is its recorded inhibition?
Ans: 1

Q: Which inhibition value belongs to CCN(CC)CCCC(C)Nc1nc(-n2[se]c3ccccc3c2=O)nc2[nH]cnc12 (configuration not stated) ?
Ans: 0

Q: Which inhibition reading was recorded for the compound O=c1c2ccccc2[se]n1-c1nc(N[C@H]2CC[Se]C2)c2nc[nH]c2n1 ?
Ans: 2

Q: Give the measured inhibition of O=c1c2ccccc2[se]n1-c1nc(N[C@@H]2C[C@H]3CC[C@@H]2C3)c2nc[nH]c2n1 .
Ans: 2
